system.tested: human ETB receptor (Homo sapiens)
Construct: expressed in transfected cells; host or cells: COS7 cells
Sequence (P24530 27-442): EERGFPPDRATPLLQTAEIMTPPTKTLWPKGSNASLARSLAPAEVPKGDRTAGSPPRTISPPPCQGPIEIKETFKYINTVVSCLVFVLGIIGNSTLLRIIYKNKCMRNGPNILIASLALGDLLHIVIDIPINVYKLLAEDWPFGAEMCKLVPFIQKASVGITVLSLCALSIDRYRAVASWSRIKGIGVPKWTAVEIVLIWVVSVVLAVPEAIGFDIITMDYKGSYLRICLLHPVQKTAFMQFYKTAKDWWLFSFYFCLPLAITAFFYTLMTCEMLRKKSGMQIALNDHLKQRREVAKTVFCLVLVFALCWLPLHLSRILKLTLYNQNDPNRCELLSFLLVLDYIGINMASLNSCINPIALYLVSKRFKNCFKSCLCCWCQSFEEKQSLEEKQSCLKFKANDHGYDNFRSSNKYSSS
assay.text: Binding Test #2: inhibition of 125I-ET-1 binding to ETB receptors (transfected COS7 cell membranes)
condition.info: Table 1; † incubation at 24° C.; read-out: ETB
Measured pIC50, listed per entry for reference.
Recall that pIC50 is obtained by taking minus log10 of the concentration measured in molar.

[
  {
    "record.smiles": "Cc1cc(C)c(NC(=O)c2sccc2S(=O)(=O)Nc2onc(C)c2Cl)c(C)c1",
    "measurement.label": "pIC50",
    "number": 5.08
  },
  {
    "record.smiles": "COc1cccc(-c2ccc(S(=O)(=O)Nc3onc(C)c3Br)s2)c1",
    "measurement.label": "pIC50",
    "number": 5.33
  },
  {
    "record.smiles": "Cc1noc(NS(=O)(=O)c2ccc(C#CC(C)(C)C)s2)c1Br",
    "measurement.label": "pIC50",
    "number": 4.45
  },
  {
    "record.smiles": "Cc1noc(NS(=O)(=O)c2ccsc2NC(=O)Nc2sccc2S(=O)(=O)Nc2onc(C)c2C)c1C",
    "measurement.label": "pIC50",
    "number": 5.23
  },
  {
    "record.smiles": "Cc1noc(NS(=O)(=O)c2ccc(-c3cccc4ccccc34)s2)c1Br",
    "measurement.label": "pIC50",
    "number": 5.85
  }
]

Param item: "Cc1noc(NS(=O)(=O)c2ccc(-c3ccc(C(F)(F)F)cc3)s2)c1Br" ; param system: human ETB receptor (Homo sapiens); output pIC50: 6.55

Considering "Cc1noc(NS(=O)(=O)c2ccsc2CCc2ccc3c(c2)OCO3)c1Br" , its pIC50 with human ETB receptor (Homo sapiens) was recorded as 5.04

Item "Cc1ccc(NC(=O)c2ccc(S(=O)(=O)Nc3onc(C)c3Br)s2)cc1" ; assay system human ETB receptor (Homo sapiens); pIC50 reported as 5.07

Kindly note: human ETB receptor (Homo sapiens), "Cc1noc(NS(=O)(=O)c2ccc(-c3cccc([N+](=O)[O-])c3)s2)c1Br" , pIC50 value reported: 5.35

* * *

Collected log10 of IC50 values appear next to each entry.
system.tested: human ETA receptors (Homo sapiens, UniProt P25101)
Construct: endogenous in cells; host or cells: TE 671 cells (ATCC HTB 139)
Sequence (P25101 21-427): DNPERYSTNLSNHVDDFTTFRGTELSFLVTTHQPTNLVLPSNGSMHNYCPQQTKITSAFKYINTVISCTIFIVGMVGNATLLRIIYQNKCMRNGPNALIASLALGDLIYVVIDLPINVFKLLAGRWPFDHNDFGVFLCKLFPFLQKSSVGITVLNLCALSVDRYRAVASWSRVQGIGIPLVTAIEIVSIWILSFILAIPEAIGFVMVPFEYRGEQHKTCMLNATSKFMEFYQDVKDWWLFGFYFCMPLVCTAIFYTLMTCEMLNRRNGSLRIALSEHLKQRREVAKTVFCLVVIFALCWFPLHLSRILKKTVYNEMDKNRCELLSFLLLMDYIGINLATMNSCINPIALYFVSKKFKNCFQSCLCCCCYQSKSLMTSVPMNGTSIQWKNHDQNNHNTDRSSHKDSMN
assay.text: Binding Test #1: inhibition of 125I-ET-1 binding to ETA receptors (TE 671 cell membranes)
condition.info: Table 1; incubation at 4° C.; read-out: ETA
From the text: Compounds that are potential endothelin antagonists are identified by testing their ability to compete with ^125I-labeled ET-1 for binding to human ETA receptors or ETB receptors present on isolated cell membranes. The effectiveness of the test compound as an antagonist or agonist of the biological tissue response of endothelin can also be assessed by measuring the effect on endothelin induced contraction of isolated rat thoracic aortic rings. […]
// units: nM (pre-log); metric: IC50; scale: log10

Below are worked cases with known answers.
[
  {
    "record.smiles": "Cc1noc(NS(=O)(=O)c2sccc2Oc2ccccc2)c1Br",
    "log10 of IC50": 2.01
  },
  {
    "record.smiles": "Cc1noc(NS(=O)(=O)c2ccsc2C(=O)NCc2ccccc2)c1Br",
    "log10 of IC50": 1.11
  },
  {
    "record.smiles": "Cc1noc(NS(=O)(=O)c2sccc2CCc2ccccc2)c1Br",
    "log10 of IC50": 2.20
  },
  {
    "record.smiles": "Cc1noc(NS(=O)(=O)c2ccsc2)c1Br",
    "log10 of IC50": 2.13
  },
  {
    "record.smiles": "COc1ccccc1NC(=O)c1sccc1S(=O)(=O)Nc1onc(C)c1Br",
    "log10 of IC50": 1.06
  },
  {
    "record.smiles": "Cc1noc(NS(=O)(=O)c2ccsc2NC(=O)Nc2sccc2S(=O)(=O)Nc2onc(C)c2Br)c1Br",
    "log10 of IC50": 1.84
  },
  {
    "record.smiles": "Cc1noc(NS(=O)(=O)c2ccc(-c3ccsc3)s2)c1Br",
    "log10 of IC50": 3.65
  },
  {
    "record.smiles": "Cc1noc(NS(=O)(=O)c2c(C)sc(C)c2-c2ccccc2)c1Br",
    "log10 of IC50": 3.15
  },
  {
    "record.smiles": "COc1cccc(NC(=O)c2sccc2S(=O)(=O)Nc2onc(C)c2Br)c1",
    "log10 of IC50": 0.48
  },
  {
    "record.smiles": "Cc1noc(NS(=O)(=O)c2c(C)sc3ccccc23)c1Br",
    "log10 of IC50": 1.69
  }
]

Reported log10 of IC50 of "Cc1onc(NS(=O)(=O)c2cccs2)c1Br" : 2.32

log10 of IC50 recorded for this molecule, "Cc1noc(NS(=O)(=O)c2ccsc2C(=O)O)c1C" , is 3.42

// log10 of IC50 lookup, molecule = "Cc1noc(NS(=O)(=O)c2ccc(S(=O)(=O)c3ccccc3)s2)c1Br" , result: 2.76

The molecule identified as "Cc1noc(NS(=O)(=O)c2cc(Br)c(Br)s2)c1Br" registered its log10 of IC50 at 2.45

// log10 of IC50 lookup, molecule = "Cc1noc(NS(=O)(=O)c2ccsc2NC(=O)Nc2sccc2S(=O)(=O)Nc2onc(C)c2C)c1C" , result: 3.00

"COc1ccc(-c2ccc(S(=O)(=O)Nc3onc(C)c3Br)s2)cc1" has a reported log10 of IC50 of 3.94

Recorded result, "Cc1noc(NS(=O)(=O)c2cc(S(=O)(=O)c3ccccc3)cs2)c1Br" , log10 of IC50: 2.58

// log10 of IC50 lookup, molecule = "Cc1cc(NS(=O)(=O)c2ccc(-c3ccon3)s2)on1" , result: 3.75

Recorded log10 of IC50 (molecule "COc1ccc(NC(=O)c2sccc2S(=O)(=O)Nc2onc(C)c2Br)cc1" ): 0.30

Data point: "Cc1noc(NS(=O)(=O)c2ccc(-c3ccc(C(F)(F)F)cc3)s2)c1Br" ; log10 of IC50 = 3.81

Origin of values: patent US6683103B2
